# target_entity: T1, Vm-EYFP, P05923
# T1 chain: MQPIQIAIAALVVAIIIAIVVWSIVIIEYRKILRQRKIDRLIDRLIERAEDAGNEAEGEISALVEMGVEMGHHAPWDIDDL
# assay_overview: BRET assay
# measurement_setup: chain shown with the change; HEK293T cells; forty-eight hours post-transfection; parent: est. 1.6; read off a plot
Mark yes (1) for response under 1, no (0) if at or over.

Take a look at these entries with their results.
hey, is response for Rluc-BST2, Q10589 L22A; L23A; L24A (protein) MASTSYDYCRVPMEDGDKRCKAAAGIGILVLLIIVILGVPLIIFTIKANSEACRDGLRAVMECRNVTHLLQQELTEAQKGFQDVEAQAATCNHTVMALMASLDAEKAQGQKKVEELEGEITTLNHKLQDASAEVERLRRENQVLSVRIADKKYYPSSQDSS lower than 1 or not?
no (0)

hey, is response for Rluc-BST2, Q10589 I28A; L29A; V30A (protein) MASTSYDYCRVPMEDGDKRCKLLLGIGAAALLIIVILGVPLIIFTIKANSEACRDGLRAVMECRNVTHLLQQELTEAQKGFQDVEAQAATCNHTVMALMASLDAEKAQGQKKVEELEGEITTLNHKLQDASAEVERLRRENQVLSVRIADKKYYPSSQDSS lower than 1 or not?
no (0)

hey, is response for Rluc-BST2, Q10589 I46A; K47A (protein) MASTSYDYCRVPMEDGDKRCKLLLGIGILVLLIIVILGVPLIIFTAAANSEACRDGLRAVMECRNVTHLLQQELTEAQKGFQDVEAQAATCNHTVMALMASLDAEKAQGQKKVEELEGEITTLNHKLQDASAEVERLRRENQVLSVRIADKKYYPSSQDSS lower than 1 or not?
no (0)

hey, is response for Rluc-BST2, Q10589 L37A; G38A; V39A (protein) MASTSYDYCRVPMEDGDKRCKLLLGIGILVLLIIVIAAAPLIIFTIKANSEACRDGLRAVMECRNVTHLLQQELTEAQKGFQDVEAQAATCNHTVMALMASLDAEKAQGQKKVEELEGEITTLNHKLQDASAEVERLRRENQVLSVRIADKKYYPSSQDSS lower than 1 or not?
yes (1)

hey, is response for Rluc-BST2, Q10589 G25A; I26A; G27A (protein) MASTSYDYCRVPMEDGDKRCKLLLAAAILVLLIIVILGVPLIIFTIKANSEACRDGLRAVMECRNVTHLLQQELTEAQKGFQDVEAQAATCNHTVMALMASLDAEKAQGQKKVEELEGEITTLNHKLQDASAEVERLRRENQVLSVRIADKKYYPSSQDSS lower than 1 or not?
no (0)

hey, is response for Rluc-BST2, Q10589 I34A; V35A; I36A (protein) MASTSYDYCRVPMEDGDKRCKLLLGIGILVLLIAAALGVPLIIFTIKANSEACRDGLRAVMECRNVTHLLQQELTEAQKGFQDVEAQAATCNHTVMALMASLDAEKAQGQKKVEELEGEITTLNHKLQDASAEVERLRRENQVLSVRIADKKYYPSSQDSS lower than 1 or not?
yes (1)

From here, focus on the item given below.
hey, is response for Rluc-BST2, Q10589 P40A; L41A; I42A (protein) MASTSYDYCRVPMEDGDKRCKLLLGIGILVLLIIVILGVAAAIFTIKANSEACRDGLRAVMECRNVTHLLQQELTEAQKGFQDVEAQAATCNHTVMALMASLDAEKAQGQKKVEELEGEITTLNHKLQDASAEVERLRRENQVLSVRIADKKYYPSSQDSS lower than 1 or not?
yes (1)
